Some molecules, each annotated with its measured Population Membrane Permeable-Phenotype (%).
Tested on: HEK-293T
Test: Multiplex assay against HEK293T
Type: toxicity, cell-based
Details: human, 24 h, 1 µM, compound concentration 1 uM, replicate 2
Output spec: scalar in %, unitless text.

> print(dat)
                                   molecule  tested.system  result
1  COCCCN1CCC(NC(=O)c2cc(Cl)c(N)c3c2OCC3)CC1 [PRUCALOPRIDE]       HEK-293T       0
2  N[C@](CC1c2ccccc2Oc2ccccc21)(C(=O)O)[C@H]1C[C@@H]1C(=O)O       HEK-293T       0
3  Cc1cc(-c2ccc3c(c2)CC[C@H]3N2CC3(CCN(C(=O)Cc4cn5cc(C)sc5n4)CC3)C2)ncn1 [PF-5190457]       HEK-293T       1
4  COC(c1ccccc1)(c1ccccc1)[C@H](Oc1nc(C)cc(C)n1)C(=O)O [AMBRISENTAN]       HEK-293T       0
5  COc1ccc2c(c1OCc1ccccc1)C[C@@H](C(=O)O)N(C(=O)C(c1ccccc1)c1ccccc1)C2 [OLODANRIGAN]       HEK-293T       1

Then this molecule:
# input Tell me the measured Population Membrane Permeable-Phenotype (%) of `COc1cc(OC2CCN(C(C)=O)CC2)ccc1C(=O)N1CCC(N2C(=O)OCc3ccccc32)CC1` , please.
# output 0

* * *

Tested on: U2OS
Test: Multiplex assay against U2OS
Type: toxicity, cell-based
Conditions: human, 24 h, 10 µM, compound concentration 10 uM, replicate 1
Could you please mark true (1) for values of Population Pyknosed Nuclei (%) below 10% and false (0) for values at or above it?

molecule	tested.system	category.label
Nc1nc(CC(=O)Nc2ccc(CCNC[C@H](O)c3ccccc3)cc2)cs1	U2OS	true (1)
Cl.Cl.OCCOCCN1CCN(C(c2ccccc2)c2ccc(Cl)cc2)CC1 (stereo not drawn) [HYDROXYZINE HYDROCHLORIDE]	U2OS	false (0)
CCCCC[C@H](O)/C=C/[C@H]1[C@H](O)CC(=O)[C@@H]1CCCCCCC(=O)O	U2OS	true (1)
CC(C)C[C@H](CO)Nc1nc(S[C@@H](C)c2ccccc2)nc2nc(N)sc12	U2OS	false (0)
COc1cc(Nc2ncc3c(n2)-c2ccc(Cl)cc2C(c2c(F)cccc2OC)=NC3)ccc1C(=O)O	U2OS	false (0)
COc1cc(OC2CCN(C(C)=O)CC2)ccc1C(=O)N1CCC(N2C(=O)OCc3ccccc32)CC1	U2OS	false (0)

Lab note: next molecule to report on.
# input Criterion: Population Pyknosed Nuclei (%) strictly below 10%. Is it met by `CC(C)(O)C(=O)N1CCN(c2ccc(C(F)(F)F)c(C3=C(c4c[nH]c5ccccc45)C(=O)NC3=O)c2)CC1` ?
# output false (0)

* * *

Test system: HEK-293T
Assay: Multiplex assay against HEK293T
Format: toxicity, cell-based
Conditions: human, 24 h, 10 µM, compound concentration 10 uM, replicate 2
Some molecules, each annotated with its measured Population Normal (%).
Output spec: scalar in %, unitless text.

Recorded results for 7 molecules are shown here.
molecule	Population Normal (%)
CCC(=O)OCC(=O)[C@@]1(OC(=O)CC)[C@@H](C)C[C@H]2[C@@H]3CCC4=CC(=O)C=C[C@]4(C)[C@@]3(Cl)[C@@H](O)C[C@@]21C [BECLOMETHASONE DIPROPIONATE]	90
Nc1nc(CC(=O)Nc2ccc(CCNC[C@H](O)c3ccccc3)cc2)cs1	94
Cc1cc(O)c(-c2ccc([C@@H](C)CN(C)C)cc2)c2c1[nH]c(=O)c1sccc12	74
Cc1sc2c(c1C)C(c1ccc(Cl)cc1)=N[C@H](CC(=O)OC(C)(C)C)c1nnc(C)n1-2	93
C=CCN1C[C@H](C(=O)N(CCCN(C)C)C(=O)NCC)C[C@@H]2c3cccc4[nH]cc(c34)C[C@H]21	87
Cc1cc(-c2ccc3c(c2)CC[C@H]3N2CC3(CCN(C(=O)Cc4cn5cc(C)sc5n4)CC3)C2)ncn1	93
O=c1nc2[nH]c3ccccc3nc-2c(=O)[nH]1	84

Then this molecule:
# input Tell me the measured Population Normal (%) of `COc1cc(OC2CCN(C(C)=O)CC2)ccc1C(=O)N1CCC(N2C(=O)OCc3ccccc32)CC1` , please.
# output 95

* * *

Tested on: Fibroblast
Experiment: Multiplex assay against human fibroblast
Format: toxicity, cell-based
Conditions: 24 h, 10 µM, compound concentration 10 uM, replicate 2
recorded.metric: Population Mitochondria Different-Phenotype (%)
Output spec: scalar in %, unitless text.

Recorded results for 6 compounds are shown here.
compound	result.units	result
O=C(NCCNCC(O)COc1ccc(O)cc1)N1CCOCC1.O=C(NCCNCC(O)COc1ccc(O)cc1)N1CCOCC1.O=C(O)/C=C/C(=O)O (configuration not stated) [XAMOTEROL FUMARATE]	%	8
CCCCCCNC(=O)Nc1ccc(S(=O)(=O)Nc2ccc(CCNC[C@H](O)COc3ccc(O)cc3)cc2)cc1	%	19
Cc1nn(C)c2nc(NNC(=O)Nc3cc(Cl)nc(Cl)c3)cc(C(C)C)c12	%	6
CN1CCN2c3ccccc3Cc3ccccc3C2C1.Cl (configuration not stated) [MIANSERIN HYDROCHLORIDE]	%	5
CCc1nn2c(C)cc(C)nc2c1Cc1ccc(-c2nnc(C3CCNCC3)o2)cc1	%	16
CN1C[C@H](C(=O)N[C@]2(C)O[C@@]3(O)[C@@H]4CCCN4C(=O)[C@H](Cc4ccccc4)N3C2=O)C[C@@H]2c3cccc4[nH]cc(c34)C[C@H]21.CS(=O)(=O)O [DIHYDROERGOTAMINE MESYLATE]	%	0

Then this compound:
# input Tell me the measured Population Mitochondria Different-Phenotype (%) of `COc1c(Nc2ccc(S(C)(=O)=O)nc2C)ncnc1OC1CCN(C(=O)OC(C)C)CC1` , please.
# output 3

* * *

Some compounds, each annotated with its measured Population Mitotic Cells (%).
Test system: U2OS
Experiment: Multiplex assay against U2OS
Assay type: toxicity, cell-based
Details: human, 12 h, 1 µM, compound concentration 1 uM, replicate 1
Output spec: scalar in %, unitless text.

Recorded results for 4 compounds are shown here.
compound	result
CC(C)(C)c1ccc(CSc2cnn(C(C)(C)C)c(=O)c2Cl)cc1	20
CCn1c(-c2nc3cc(C(=O)N4CCCC(N)C4)ccc3n2C)cc2ccccc21.Cl (stereo unspecified)	38
Cc1cc(NC(=O)NCCN2CCC(O)(Cc3ccccc3)CC2)c2ccccc2n1	20
CCCCC[C@H](O)/C=C/[C@H]1[C@H](O)CC(=O)[C@@H]1CCCCCCC(=O)O	0

# input Tell me the measured Population Mitotic Cells (%) of `OCCCNc1cc(-c2ccnc(Nc3cccc(Cl)c3)n2)ccn1` , please.
# output 11

# input Tell me the measured Population Mitotic Cells (%) of `O=c1nc2[nH]c3ccccc3nc-2c(=O)[nH]1` , please.
# output 29

# input Tell me the measured Population Mitotic Cells (%) of `Cc1cc(-c2ccc3c(c2)CC[C@H]3N2CC3(CCN(C(=O)Cc4cn5cc(C)sc5n4)CC3)C2)ncn1` , please.
# output 17

# input Tell me the measured Population Mitotic Cells (%) of `C[C@@H]1CC(=O)Nc2cccc(-c3ccc4c(c3)c(-c3cnn(C)c3)nn4C)c2N1` , please.
# output 7

# input Tell me the measured Population Mitotic Cells (%) of CCC(=O)OCC(=O)[C@@]1(OC(=O)CC)[C@@H](C)C[C@H]2[C@@H]3CCC4=CC(=O)C=C[C@]4(C)[C@@]3(Cl)[C@@H](O)C[C@@]21C [BECLOMETHASONE DIPROPIONATE] , please.
# output 15

# input Tell me the measured Population Mitotic Cells (%) of CN(C)C/C=C/C(=O)Nc1ccc(C(=O)N2CCCC(Nc3ncc(Cl)c(-c4c[nH]c5ccccc45)n3)C2)cc1 (stereo unspecified) , please.
# output 22

# input Tell me the measured Population Mitotic Cells (%) of O=C(NCCNCC(O)COc1ccc(O)cc1)N1CCOCC1.O=C(NCCNCC(O)COc1ccc(O)cc1)N1CCOCC1.O=C(O)/C=C/C(=O)O (stereo unspecified) [XAMOTEROL FUMARATE] , please.
# output 28

# input Tell me the measured Population Mitotic Cells (%) of `COCCn1c(C)c(C)s/c1=N\C(=O)C1C(C)(C)C1(C)C` , please.
# output 11

* * *

System: Fibroblast
Assay: Multiplex assay against human fibroblast
Assay type: toxicity, cell-based
Details: 48 h, 10 µM, compound concentration 10 uM, replicate 1
recorded.metric: Population Mitochondria Different-Phenotype (%)
Output spec: scalar in %, unitless text.

molecule	tested.system	result.units	result
CN1CCC(C(=O)c2cccc(NC(=O)c3c(F)cc(F)cc3F)n2)CC1	Fibroblast	%	7
Nc1nc(CC(=O)Nc2ccc(CCNC[C@H](O)c3ccccc3)cc2)cs1 [MIRABEGRON]	Fibroblast	%	4
OCCCNc1cc(-c2ccnc(Nc3cccc(Cl)c3)n2)ccn1	Fibroblast	%	42
Cc1cc(NC(=O)NCCN2CCC(O)(Cc3ccccc3)CC2)c2ccccc2n1 [PALOSURAN]	Fibroblast	%	10
Cn1cc(C(=O)OCC2CCN(CCNS(C)(=O)=O)CC2)c2ccccc21	Fibroblast	%	9

# input Tell me the measured Population Mitochondria Different-Phenotype (%) of O=c1ccc2ccc(OCCCCN3CCN(c4cccc5sccc45)CC3)cc2[nH]1 [BREXPIPRAZOLE] , please.
# output 60

# input Tell me the measured Population Mitochondria Different-Phenotype (%) of `COCCn1c(C)c(C)s/c1=N\C(=O)C1C(C)(C)C1(C)C` , please.
# output 22

# input Tell me the measured Population Mitochondria Different-Phenotype (%) of O=C(NCCNCC(O)COc1ccc(O)cc1)N1CCOCC1.O=C(NCCNCC(O)COc1ccc(O)cc1)N1CCOCC1.O=C(O)/C=C/C(=O)O (stereo not drawn) [XAMOTEROL FUMARATE] , please.
# output 3
